Entries annotated with measured Anthocyanin uptake, Gel pH 6.5
# System: Human Oral Mucosa Explant Tissues
# test.method.notes: Effect of final gel pH on anthocyanin uptake into human oral mucosa explant tissues
# Type: in vitro ADME
# condition.summary: explant sample 010; 10% w/w FBR gel

Could you share which Anthocyanin uptake, Gel pH 6.5 value was measured for CC1OC(OCC2OC(Oc3cc4c(O)cc(O)cc4[o+]c3-c3ccc(O)c(O)c3)C(OC3OCC(O)C(O)C3O)C(O)C2O)C(O)C(O)C1O (stereo not shown) [cyanidin 3-xylosylrutinoside] ?
0.5 pmol per mg tissue

* * *

# System: Human Oral Mucosa Explant Tissues
# test.method.notes: Effect of final gel pH on anthocyanin uptake into human oral mucosa explant tissues
# Type: in vitro ADME
# condition.summary: explant sample 005; 10% w/w FBR gel
measured.property: % change 3.5 to 6.5 (%)
Express it in %; write the number only.

Sample CC1OC(OCC2OC(Oc3cc4c(O)cc(O)cc4[o+]c3-c3ccc(O)c(O)c3)C(OC3OCC(O)C(O)C3O)C(O)C2O)C(O)C(O)C1O (stereo not shown) [cyanidin 3-xylosylrutinoside] — what was its % change 3.5 to 6.5?
−45.9

Field entry: C[C@@H]1O[C@@H](OC[C@H]2O[C@@H](Oc3cc4c(O)cc(O)cc4[o+]c3-c3ccc(O)c(O)c3)[C@H](O)[C@@H](O)[C@@H]2O)[C@H](O)[C@H](O)[C@H]1O [cyanidin 3-rutinoside]
−20.0

Can you check OC[C@H]1O[C@@H](Oc2cc3c(O)cc(O)cc3[o+]c2-c2ccc(O)c(O)c2)[C@H](O[C@@H]2OC[C@@H](O)[C@H](O)[C@H]2O)[C@@H](O)[C@@H]1O.[Cl-] [Cyanidin 3-sambubioside, cyanidin 3-sambubioside] next?
−61.8

Would you kindly repeat that for OC[C@H]1O[C@@H](Oc2cc3c(O)cc(O)cc3[o+]c2-c2ccc(O)c(O)c2)[C@H](O)[C@@H](O)[C@@H]1O [cyanidin 3-glucoside] ?
65.3
